Recorded values, source paper PMC5540273.

# Test system: MARK4
# Condition details: concentration: 1 μM, replicates: in singlicate; n = 1;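 further: KINOMEscan kinase panel screen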
The following compounds are listed with their measured %Inh values.
Numbers only; they are read as %.

Solved cases (5 shown):
>>> recorded_result("O=C(O)C(F)(F)F.O=c1[nH]ccc2nc(N[C@@H]3CCNC3)nc(Nc3cc(Cl)cc(Cl)c3)c12 [GSK2188764]")
41
>>> recorded_result("Cc1ccc(NC(=O)c2ccc(Cl)c(Cl)c2)cc1-c1ccc(C(=O)Nc2ccncc2)cc1 [GSK1398460]")
16
>>> recorded_result("Cc1ccc(C)c(NC(=O)Nc2ccc(C)c(-c3ccc(C(=O)Nc4ccncc4)cc3)c2)c1 [GSK1398473]")
3
>>> recorded_result("CC(C)c1nc(-c2cccc(NS(=O)(=O)c3c(F)cccc3F)c2)c(-c2ccnc(Nc3ccc(N4CCOCC4)nc3)n2)s1.Cl [GSK1723980]")
40
>>> recorded_result("Fc1cc(Cl)ccc1Nc1ccnc2cc(-c3ccc(CN4CCSCC4)o3)ccc12 [GW560106]")
21

Now consider the entry below.
Query Cc1cc(-c2ccnc(Nc3cccc(C#N)c3)n2)cc(C)c1O [GSK1440913] on MARK4; %Inh returned: 0

---

# Tested on: CSNK1G1
# Condition details: concentration: 1 μM, replicates: in singlicate; n = 1
The entries below come with measured %Inh values attached.
Just the number in %, nothing appended.

# example entries with known answers
>>> recorded_result("COC(=O)Nc1nc2ccc(Oc3ccc(CC(=O)Nc4cc(C(F)(F)F)ccc4F)cc3)cc2[nH]1")
0
>>> recorded_result("O=C(Nc1n[nH]c2nc(-c3cccc(O)c3)ccc12)C1CC1")
6
>>> recorded_result("COc1cc(Nc2nccc(N3CCC(NC(=O)Nc4ccc5c(c4)OCO5)C3)n2)cc(OC)c1OC (stereo not shown)")
10

Note: attention shifts to another entry.
compound Cc1ccc(O)cc1Nc1ccnc2cc(-c3ccc(CN4CCCCC4)o3)ccc12 , %Inh observed: 6

---

# System: AKT3
# Condition details: concentration: 1 μM, replicates: in singlicate; n = 1
Strictly below 10% in %Inh: t. Otherwise: f.

>>> label_class("O=C(O)C(F)(F)F.O=c1[nH]ccc2nc(N[C@@H]3CCNC3)nc(Nc3ccc4c(c3)S(=O)(=O)CC4)c12")
"f"
>>> label_class("Cl.N#CCc1ccc(Nc2nccc(Nc3ccc(Oc4ccccc4)cc3)n2)cc1")
"t"
>>> label_class("CNc1nccc(-c2ccc3c(N)n[nH]c3c2)n1")
"t"
>>> label_class("Cc1ccc(NC(=O)c2ccnc(N3CCCCC3)c2)cc1-c1ccc(C(=O)NCC2CC2)cc1")
"t"

Consider CN(c1ccc(NC(=O)Nc2cccc(Cl)c2)cc1)c1ccnc(N)n1.Cl . Does its %Inh lie strictly below 10%?
f

hey, is %Inh for CCn1c(-c2nonc2N)nc2c(-c3ccccc3)ncc(OCCCN)c21.O=C(O)C(F)(F)F.O=C(O)C(F)(F)F lower than 10% or not?
f

Given O=C(Nc1n[nH]c2cc(-c3cccs3)ccc12)C1CC1 , is recorded %Inh strictly lower than 10%?
t

Take the compound Nc1ncnc2scc(-c3ccc(NC(=O)Cc4cc(F)ccc4F)cc3)c12.O=C(O)C(F)(F)F and say whether its %Inh is less than 10%.
t

Please indicate whether the reported %Inh of CN(c1ccc(F)c(NC(=O)c2cccc(OC(C)(C)C#N)c2Cl)c1)c1ccc2nc(NC(=O)C3CC3)sc2n1 is strictly below 10%.
t

In plain terms, does CCn1cnc2c(NCc3ccccc3)ncnc21 come in under 10% for %Inh?
t

---

# Test system: TRKA
# Construct: gene NTRK1
# Condition details: concentration: 1 μM, replicates: in singlicate; n = 1
Property measured: %Inh (%)
Field: numeric (%). Do not append units.

>>> recorded_result("CN(C)CCOc1ccc(-c2cc(-c3ccc(Cl)c(O)c3)c(-c3ccncc3)[nH]2)cc1.Cl.Cl [SB-684387]")
9
>>> recorded_result("Cc1cc(-c2c(-c3ccc(F)cc3)ncn2CCCN2CCOCC2)nc(N)n1 [SB-222517]")
0
>>> recorded_result("Cn1cc(-c2ccc3c(c2)CCN3C(=O)Cc2cc(F)cc(C(F)(F)F)c2)c2c(N)ncnc21 [GSK2635225]")
49
>>> recorded_result("COc1cccc(C2=C(Nc3cccc(O)c3)C(=O)NC2=O)c1 [SB-390771]")
0

// switching to the query compound
Looking up O=C(Nc1n[nH]c2nc(-c3ccccc3O)ccc12)C1CC1 [SB-711880] , I found its %Inh recorded as 49

---

# Tested on: EGFR
# Condition details: concentration: 1 μM, replicates: in singlicate; n = 1
Please note: MET applies when %Inh is 30% or greater, and NOT MET applies otherwise.

>>> label_class("CN1CCN(Cc2ccc(NC(=O)Nc3ccc(N(C)c4ccnc(Nc5ccc(CS(C)(=O)=O)cc5)n4)cc3)cc2)CC1.Cl")
"NOT MET"

# check: %Inh of O=C(Nc1n[nH]c2nc(-c3ccccc3O)ccc12)C1CC1 is greater than or equal to 30%
NOT MET

Determine whether this compound has %Inh no lower than 30%: O=C(Nc1n[nH]c2cc(-c3cccs3)ccc12)C1CC1
NOT MET

Hi, just wondering whether Cc1cccc(Nc2nc(N[C@H]3CCCC[C@H]3N)ncc2C(N)=O)c1.Cl shows %Inh of 30% or higher.
MET

Hi team, for NCCC(NC(=O)c1cc(Br)c(-c2ccnc3[nH]ccc23)s1)c1ccccc1.O=C(O)C(F)(F)F.O=C(O)C(F)(F)F (stereo not shown) , is the recorded %Inh at or above 30%?
NOT MET

Would you say COc1cccc(-c2nc(-c3ccccc3)[nH]c2-c2ccncc2)c1 shows %Inh at minimum 30%?
NOT MET

Item Nc1cccc(-c2ccc3c(N)n[nH]c3c2)c1 with %Inh of 30% or above?
NOT MET

Kindly determine if %Inh recorded for c1ccc(Oc2ccc(Nc3ccnc4cc(-c5ccc(CN6CCCCC6)o5)ccc34)cc2)nc1 is above or exactly 30%.
MET

---

# Test system: ERBB3
# Condition details: concentration: 1 μM, replicates: in singlicate; n = 1
Property measured: %Inh (%)
Dear colleague, please return just the value in %, with no unit written.

>>> recorded_result("COc1ccc(C)c(Nc2ccnc(Nc3ccc(-c4cnc[nH]4)cc3)n2)c1.Cl")
89

# ---- query molecule ----
Memo: CC(C)c1nc(-c2ccc(F)c(NS(=O)(=O)c3c(F)cccc3F)c2)c(-c2ccnc(Nc3ccc(N4CCOCC4)nc3)n2)s1 , reported %Inh: 98.8

---

# Tested on: DDR2
# Condition details: concentration: 1 μM, replicates: in singlicate; n = 1
Here, each record is paired with measured %Inh data.
A bare number is not enough; add the unit after it.

>>> recorded_result("O=C(O)C(F)(F)F.O=c1[nH]ccc2nc(N[C@@H]3CCNC3)nc(Nc3ccc4c(c3)S(=O)(=O)CC4)c12")
"5%"
>>> recorded_result("CCNc1nccc(-c2c(-c3ccc(F)cc3)ncn2C2CCN(C)CC2)n1")
"4%"
>>> recorded_result("COc1cccc(-c2nc(-c3ccccc3)[nH]c2-c2ccncc2)c1")
"49%"

# evaluate next
Entry Cl.Cl.NCC(NC(=O)c1cc(-c2cccnc2)c(-c2ccnc3[nH]ccc23)s1)c1ccccc1 (stereo not shown) ; %Inh = 55%

---

Reported %Inh by item:
# Test system: ERBB3
# Condition details: concentration: 1 μM, replicates: in singlicate; n = 1
I'd appreciate it if you wrote the number followed by its unit.

>>> recorded_result("COc1ccc(C2=C(Nc3cccc(O)c3)C(=O)NC2=O)cc1 [SB-390766]")
"0%"

# %Inh of O=C1NC(=O)C(c2ccccc2Cl)=C1Nc1cccc(Cl)c1 [SB-342409] = 0%

Consider COc1cccc(NC(=O)NCCNc2ccnc(Nc3ccc(F)cc3)n2)c1 [GSK1379879] . Its measured %Inh is 24%

The value of %Inh measured for the compound Cc1nn2c(=O)cc(N3CCO[C@H](C)C3)nc2n1Cc1cccc(Cl)c1Cl [GSK2373693] turned out to be 0%

Record CC(=O)Nc1cn2nc(Oc3cccc(NC(=O)c4cccc(C(F)(F)F)c4)c3)ccc2n1 , field %Inh: 41%

Documented %Inh of O=C(O)C(F)(F)F.O=c1[nH]ccc2nc(N[C@@H]3CCNC3)nc(Nc3ccc4c(c3)S(=O)(=O)CC4)c12 [GSK2181306] : 0%

// %Inh lookup, compound = Cn1cc(-c2ccc3c(c2)CCN3C(=O)Cc2cc(F)cc(C(F)(F)F)c2)c2c(N)ncnc21 [GSK2635225] , result: 0%

CN(C)c1ncnc2nc[nH]c12 [SKF-31736] yielded %Inh of 13%

The recorded %Inh for Cc1cccc(Nc2nc(N[C@H]3CCCC[C@H]3N)ncc2C(N)=O)c1.Cl [GSK986310] is 0%
